# Lookup of reported OD450 keyed by entry
# measurement target: hemagglutinin (HA) of influenza A/Solomon Islands/3/06 H1N1 (Influenza A virus A/Solomon …)
# assay overview: ELISA, inactivated whole virions coated; transfection supernatant set 3
Write the value in OD450 as a bare number.

- binder: "TCN-529 (5297_H01) (antibody, V domains shown) VH: QITLRESGPTLVKPTQTLTLTCTFSGFSLSTNGVNVGWIRQPPGKALEWLALIYWDDDKRYSPSLKRRLTITKDTSKNQVVLTLTNMDPVDTATYYCAHRPDFYGDFEYWGPGTLVTVSS VL: QSALTQPASVSGSPGQSITISCTGSSSDIGGYNYVSWYQQHPGKAPKLMIYDVNNRPSGVSNRFSGSKSGNTASLTISGLQTDDEADYYCGSYTGSPHYVFGTGTKVTVL"
  OD450, OD450: 0.16
- binder: "TCN-531 (5091_H13) (antibody, V domains shown) VH: EVQLVESGGDLVQPGRSLKLSCTGSGFTFGDYGVTWVRQAPGKGLEWVGFIRTRPWGGTADTAASVKGRFTISRDDSKSLAYLQMNSLKTEDTAVYYCCRDAPPNVEVASMTNWYFDLWGRGTLVTVSS VL: DIQLTQSPSSLSASVGDRVTITCRASQGILNCLAWYQQKPGKVPNLLMYAASTLQSGVPSRFSGSGFGTDFTLTISSLQPEDVATYYCQTYGGVSTFGGGTKVEIR"
  OD450, OD450: 0.1

With those in mind, consider the next binder.
Kindly note the recorded OD450 for TCN-523 (5248_A17) (antibody, V domains shown) VH: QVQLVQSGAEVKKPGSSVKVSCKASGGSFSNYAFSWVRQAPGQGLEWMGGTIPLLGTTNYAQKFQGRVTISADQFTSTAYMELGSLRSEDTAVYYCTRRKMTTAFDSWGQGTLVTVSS VL: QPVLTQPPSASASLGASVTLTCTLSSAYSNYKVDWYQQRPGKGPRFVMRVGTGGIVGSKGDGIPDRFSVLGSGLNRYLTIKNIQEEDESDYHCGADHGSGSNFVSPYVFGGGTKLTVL , which is 3.59

Where do these numbers come from? They come from patent US20120207760A1.
